From: PubChem BioAssay (NCI)

Test system: UACC-62 melanoma
PROTOCOL DESCRIPTION: NCI tumour cell line growth inhibition, 48 h
Record form. Attribute: TGI. Fill in for each entry.

Check out these entries, answers already filled in.
O=C(O)CNS(=O)(=O)c1ccc(NC(=O)c2ccc([N+](=O)[O-])cc2)cc1; > 100 µM
CCOC(=O)c1cc2c3ccn(Cc4ccccc4)c3c3c(C)[nH]oc3c2n1; > 100 µM
COc1ccc(S(=O)(=O)c2ccccc2[N+](=O)[O-])cc1; > 100 µM

# return TGI for each item in the list
1. O=C(/C=C/c1ccc2ccccc2c1)NCc1ccc(C(=O)NCCc2ccccc2)cc1
2. CC(=O)[C@@H](C)C(=O)N1C(=O)OC[C@@]12[C@@H]1CC[C@@H](C1)C2(C)C
3. O=C(c1cccc2ccccc12)N1CCC(C2CCN(C(=O)c3cccc4ccccc34)CC2)CC1
4. COc1ccc(/C=C/c2c(C(=O)/C=C/c3ccccc3)c(C)nc3ccccc23)cc1
5. C=C(C)[C@H]1Cc2c(ccc3c2O[C@@H]2COc4cc(OC)c(OC)cc4[C@@H]2C3=O)O1
6. COC(=O)Nc1nc2ccc(C3(c4ccc(F)cc4)OCCO3)cc2[nH]1

A.
1: > 100 µM; 2: > 100 µM; 3: > 100 µM; 4: 3.11 µM; 5: 44.7 µM; 6: > 100 µM

# return TGI for each item in the list
1. C=C(C)[C@@H]1CC[C@]2(CO)CC[C@]3(C)[C@H](CC[C@@H]4[C@@]5(C)C=C(C#N)C(=O)C(C)(C)[C@@H]5CC[C@]43C)[C@@H]12
2. C[Si](C)(C)OC1CC(=O)OC1n1cc(F)c(=O)[nH]c1=O (stereo unspecified)

A.
["2.44 µM", "> 100 µM"]

# return TGI for each item in the list
1. O=C1NC2O[C@H](CNC(=O)c3cc(Br)c[nH]3)CC2(O)N1 (mixture of isomers)
2. O=[N+]([O-])c1ccc(S(=O)(=O)n2c3ccc(Br)cc3c3nc4ccccc4nc32)cc1
3. CCOC(=O)N[C@@H]1C(CC(=O)OC)O[C@H]2OC(C)(C)O[C@H]21 (stereo partly specified)
4. CCOC(=O)c1cn2c(n1)sc1cc(Cl)ccc12
5. O=C(CC(=O)n1nc(-c2ccccc2)c(N=Nc2ccc(Cl)cc2)c1-c1ccccc1)Nc1ccc(Cl)cc1
6. Clc1ccc(-c2cc3nc4ccccc4nc3o2)cc1

A.
1: > 100 µM; 2: > 100 µM; 3: > 100 µM; 4: > 100 µM; 5: > 100 µM; 6: > 100 µM

# return TGI for each item in the list
1. O=c1cc(-c2ccc(Oc3ccccc3)cc2)[nH]c2cc3c(cc12)OCO3
2. c1ccc(Sc2ccc(Cc3nc4cc5ccccc5cc4[nH]3)cc2)cc1
3. CC(C)c1c(O)c(O)c2c(c1O)C(=O)C(O)=C1C(C)(C)CCC[C@@]12C
4. O=C(c1ccco1)N(C(=S)OCCOc1ccccc1)c1ccccc1
5. CCc1cc(Cc2cc(CC)c(NC(=O)C(=O)CC(=O)c3sc(-c4cccnc4)nc3C)c(CC)c2)cc(CC)c1NC(=O)C(=O)CC(=O)c1sc(-c2cccnc2)nc1C
6. Cc1ccc(N=C/C=C(\Nc2ccc(C)cc2)c2ccc(Cl)cc2)cc1
7. CCOc1ncn(-c2ccc(NC(=S)NC3OC(CO)C(O)C(O)C3O)cc2)n1 (stereo unspecified)

A.
> 100 µM
27.2 µM
16.1 µM
32.7 µM
> 100 µM
39.8 µM
> 100 µM

# return TGI for each item in the list
1. O=C1c2ccccc2C(=O)N1CCCCNOCCCN1C(=O)c2ccccc2C1=O
2. CCOC(=O)c1ccc(N[C@@H]2c3cc4c(cc3C(c3cc(OC)c(O)c(OC)c3)[C@H]3C(=O)OCC32)OCO4)cc1O (stereo partly specified)
3. CCNCCNc1cc(-c2ccc(C(F)(F)F)cc2)c(C#N)c2nc3ccccc3n12
4. CCOC(=O)C1C(=O)CC1(C)C (stereo unspecified)

A.
> 100 µM
2.4 µM
1.82 µM
> 10 µM

# return TGI for each item in the list
1. CCOC(=O)CCC(=O)C1c2cccc(O)c2C(=O)c2c(O)cc(C)cc21 (stereo unspecified)
2. Cc1ccc([N+](=O)[O-])c2c(NCCC[N+](C)(C)[O-])c3ccccc3nc12
3. CC1(C)C(=O)/C(=C\c2cccnc2)C[C@]2(C)[C@H]3CC[C@@H]4[C@H]5[C@H](C(=O)/C=C/c6cccnc6)CC[C@]5(C(=O)O)CC[C@@]4(C)[C@]3(C)CC[C@@H]12

A.
1. 1.48 µM
2. 3.4 µM
3. 4.02 µM

###

Record form. Attribute: TGI. Fill in for each entry.
System: K-562 leukemia
PROTOCOL DESCRIPTION: NCI tumour cell line growth inhibition, 48 h

Check out these entries, answers already filled in.
CC(=O)O[C@H]1CCC2[C@@H]3CC[C@]4(C)CC(=O)C=C[C@]4(C)C3CC[C@@]21C (some centres undefined); > 100 µM
CN1CCc2nc(N)nc(-c3nc(N)nc4c3CN(C)CC4)c2C1; > 100 µM
O=C(c1ccco1)N(C(=S)OCCOc1ccccc1)c1ccccc1; 83.4 µM

Q. Request: TGI, test system K-562 leukemia, entry O=C(CCc1nc(=S)[nH][nH]1)Nc1ccccc1Cl
A. > 100 µM

###

Record form. Attribute: TGI. Fill in for each entry.
Test system: MCF7 breast
PROTOCOL DESCRIPTION: NCI tumour cell line growth inhibition, 48 h

Check out these entries, answers already filled in.
Nc1nc(-c2ccccc2)cc(-c2ccc(OCc3ccccc3)cc2O)n1; > 100 µM
Nc1ccccc1C#C/C=C\C#Cc1ccccc1N; > 100 µM
CC(=O)Oc1ccc2cc(-c3ccccc3OC(C)=O)c(=O)oc2c1; > 100 µM
CCCCCCCCCCCC(=O)OCC(C[As](=O)(O)O)OC(=O)CCCCCCCCCCC (stereo not drawn); 13 µM

# return TGI for each item in the list
1. CC(=O)ONC(C(=O)C(C)(C)C)C(=O)C(C)(C)C
2. O=C1c2ccccc2C(=O)N1CCCCNOCCCN1C(=O)c2ccccc2C1=O
3. NS(=O)(=O)c1ccc(-c2ccc3c(NC(=O)C4CC4)n[nH]c3c2)cc1
4. OCC1OC(n2cnc3c2NC=NC[C@H]3O)C(Cl)C1O (stereo partly drawn)
5. COc1c(C(=O)/C=C/c2ccccc2)c(O)cc2occc12

A.
1: > 100 µM; 2: > 100 µM; 3: > 25 µM; 4: > 100 µM; 5: 17.2 µM

###

Test system: SNB-19 CNS
PROTOCOL DESCRIPTION: NCI tumour cell line growth inhibition, 48 h
PROPERTY: TGI

Check out these entries, answers already filled in.
O=C1CC(c2cccc([N+](=O)[O-])c2)C2(C(=O)NC(=O)NC2=O)C(c2cccc([N+](=O)[O-])c2)C1 (stereo not drawn); > 100 µM
Cc1cc(C)c(NC(=O)c2sc3nc4c(cc3c2N)C(=O)CCC4)c(C)c1; > 100 µM
S=c1ssc(N2CCOCC2)c1Cl; > 100 µM
Cc1ccc(S(=O)(=O)N/N=C2/CCCOC2)cc1; > 100 µM
O=C1c2ccsc2C(=O)c2sc(CO)cc21; 0.218 µM

# return TGI for each item in the list
1. CCOC(=O)c1ccc(N[C@@H]2c3cc4c(cc3C(c3cc(OC)c(O)c(OC)c3)[C@H]3C(=O)OCC32)OCO4)cc1O (stereo partly drawn)
2. COc1cc(/C=C/c2ccc(OC)c(O)c2)cc(OC)c1
3. CSc1nnc(SC)nn1

A.
> 25.9 µM
24.1 µM
43.3 µM

###

Tested on: CAKI-1 renal
PROTOCOL DESCRIPTION: NCI tumour cell line growth inhibition, 48 h
Record form. Attribute: TGI. Fill in for each entry.
Answers are plain numbers, in µM.

Check out these entries, answers already filled in.
C/C(=N\Nc1ccc(Cl)cn1)c1ccc2ccccc2n1; 87.1
COC(=O)c1cc2c(cc1Cl)Sc1nnc(Nc3ccc(C)cc3)n1S2(=O)=O; 22

Consider the record given below.
Q. For the compound shown here, Cc1ccc(N=C/C=C(\Nc2ccc(C)cc2)c2ccc(Cl)cc2)cc1 , give the reported TGI.
A. 40.4

###

Test system: HT29 colon
PROTOCOL DESCRIPTION: NCI tumour cell line growth inhibition, 48 h
PROPERTY: log10 TGI (log10 of the value in µM)
Hey, these are logged values: log10 of TGI, µM being the unit before logging.

Check out these entries, answers already filled in.
CCCC(CCC)NCC(O)c1cc(-c2ccc(C(F)(F)F)cc2)nc(C(F)(F)F)c1 (centres undefined); 0.52
Cc1cc(C)c(NC(=O)c2sc3nc4c(cc3c2N)C(=O)CCC4)c(C)c1; 1.05
Clc1ccc(C[P+](c2ccccc2)(c2ccccc2)c2ccccc2)c(Cl)c1; 1.02
CCNCCNc1cc(-c2ccc(C(F)(F)F)cc2)c(C#N)c2nc3ccccc3n12; 0.11

# return log10 TGI for each item in the list
1. CC(C)c1c(O)c(O)c2c(c1O)C(=O)C(O)=C1C(C)(C)CCC[C@@]12C
2. COCc1nc2c(OC)c(-c3nc4nc(N5CCN(C)CC5)ccc4[nH]3)cc(OC)c2n1C

A.
1: 1.01; 2: 1.79
